Hello, the source for this data is ChEMBL document CHEMBL1129567, in case you need it.

# pKi listing for each entry below
SYSTEM_NAME: UniProt P62942
ASSAY: Apparent inhibition constant of Wild-type human recombinant FK506 binding protein 12
APPLIED_CONDITIONS: read-out: Ki app
// pKi here means minus log10 of the molar concentration (mol/L)

Below, each entry is followed by its recorded pKi result.
INSERT INTO assay_data (smiles_entry, recorded_metric, assay_result) VALUES
  ('O=C(OCc1ccccc1)[C@@H]1CCC[C@H]2CCN(Cc3ccccc3)C(=O)N21', 'pKi', 4.85),
  ('CC1(CNC(=O)N2CCCC[C@H]2C(=O)OCCCCc2ccccc2)CCCCC1', 'pKi', 6.92),
  ('CC(C)(CO)CNC(=O)N1CCCC[C@H]1C(=O)OCc1ccccc1', 'pKi', 5.08);

Record request: pKi value, item "CCCN1CC[C@@H]2CCC[C@@H](C(=O)OCc3ccccc3)N2C1=O" 4.62

Record request: pKi value, item "CCCN1CC[C@@H]2CCC[C@@H](C(=O)OC)N2C1=O" 4.08

---

SYSTEM_NAME: Peptidyl-prolyl cis-trans isomerase FKBP1A (Homo sapiens, UniProt P62942)
Sequence (P62942 whole entry): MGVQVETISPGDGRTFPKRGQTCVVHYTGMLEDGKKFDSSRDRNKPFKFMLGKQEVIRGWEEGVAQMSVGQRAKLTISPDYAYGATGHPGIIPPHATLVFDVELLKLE
ASSAY: Apparent inhibition constant of Wild-type human recombinant FK506 binding protein 12
APPLIED_CONDITIONS: read-out: Ki app
# Ki listing for each entry below
Report as a plain number; the unit µM is understood.

INSERT INTO measurements (smiles_entry, recorded_metric, assay_result) VALUES
  ('COC(=O)[C@@H]1CCC[C@H]2CCN(Cc3ccccc3)C(=O)N21', 'Ki', 67),
  ('CC1(CNC(=O)N2CCCC[C@H]2C(=O)OCc2ccccc2)CCCCC1', 'Ki', 0.55);

Now look at this one.
For Peptidyl-prolyl cis-trans isomerase FKBP1A (Homo sapiens, UniProt P62942), provide Ki of "CC(C)(C)CNC(=O)N1CCCC[C@H]1C(=O)O[C@H](CCc1ccccc1)c1ccccc1" please. 0.35

---

SYSTEM_NAME: Peptidyl-prolyl cis-trans isomerase FKBP1A (Homo sapiens, UniProt P62942)
ASSAY: Apparent inhibition constant of Wild-type human recombinant FK506 binding protein 12
APPLIED_CONDITIONS: read-out: Ki app
# Ki listing for each entry below

Below, each entry is followed by its recorded Ki result.
INSERT INTO assay_data (smiles_entry, assay_result) VALUES
  ('CC(C)(C)CNC(=O)N1CCCC[C@H]1C(=O)OCc1cccc(Oc2ccccc2)c1', '220 nM'),
  ('CC1(CNC(=O)N2CCCC[C@H]2C(=O)OCc2ccccc2)CCCC1', '570 nM'),
  ('CC(C)(C)CNC(=O)N1CCCC[C@H]1C(=O)OCCCCc1ccccc1', '150 nM'),
  ('CC(C)(C)CNC(=O)N1CCCC[C@H]1C(=O)OCc1ccccc1', '790 nM'),
  ('COc1cccc(CCCOC(=O)[C@@H]2CCCCN2C(=O)NCC(C)(C)C)c1', '370 nM');

Record request: Ki value, item "C=C(C)CNC(=O)N1CCCC[C@H]1C(=O)OCc1ccccc1" 7200 nM

Record request: Ki value, item "CC1(CNC(=O)N2CCCC[C@H]2C(=O)OCc2cccc(Oc3ccccc3)c2)CCCCC1" 200 nM

Record request: Ki value, item "O=C(OCc1ccccc1)[C@@H]1CCCCN1C(=O)NCc1ccccc1" 6500 nM

Record request: Ki value, item "COc1cc(CCCOC(=O)[C@@H]2CCCCN2C(=O)NCC(C)(C)C)cc(OC)c1OC" 390 nM
